System: MS2 coat protein
Experiment: apparent KD of MS2 coat protein; designed switch direction (-1 OFF switch, 1 ON switch): 1; higher = weaker reporter binding
Conditions: input ligand: none

{"residueString": "GCGGACCUCACAUGAGGAUCACCCAUGUUGCGGAGACGCAAUGAGGAUAUCGAUGGGUUUCCCGUCGAGAAGGCAUAAAUCCGC [JL SSNG3 3.93 mod 4] (Eterna round: R96, puzzle: Same State NG 3)", "apparent KD of MS2 coat protein / nM": 56.6}
{"residueString": "UAUCGUUUGAUAGGAUAUCGCUAUACAUGAGGAUCACCCAUGUUUACCACGCUGGUUUUUCAUACCGAGAAGGAUUCUGAUGAC [salish99_SSNG02_r04_006] (Eterna round: R96, puzzle: Same State NG 2)", "apparent KD of MS2 coat protein / nM": 27.7}
{"residueString": "GGCCUGAGUCAAGGAUAUGCUACCGUUUCGGUAGCAGAAGGUGAUCACAUGAGGAUCACCCAUGUUUACGCGAAGACGCGCGCC (Eterna round: R96, puzzle: Same State NG 1)", "apparent KD of MS2 coat protein / nM": 35.7}
{"residueString": "GAGUGGUGGAGAGGAUAUACAUUGAUAUUCACUGUAGAAGGUUCUAACAUGAGGAUCACCCAUGUAGGACUAUUCCUGAGAGUU [Parity 54 - Jieux - Same State NG 1] (Eterna round: R96, puzzle: Same State NG 1)", "apparent KD of MS2 coat protein / nM": 14.7}

* * *

Tested on: MS2 coat protein
Test: apparent KD of MS2 coat protein; higher = weaker reporter binding
Details: Eterna round: R107; input ligand: tryptophan 2.4 mM
# apparent KD of MS2 coat protein per entry

{"residueString": "AUUCCAUUGGUGCAGUUGUUAAAUGGCGAUACCAGCGUGGAAACACGCCCUUGGCAGCGCCAAAACAUGAGGAUCACCCAUGUUA [Havirov]", "targetDesc": "MS2 coat protein", "apparent KD of MS2 coat protein, nM": 59.1}
{"residueString": "AGUGUUAUAACUGAUACCAGACUUUUGCUUAUACAUGAGGAUCACCCAUGUAAAAUGGUUGUCCCUUGGCAGCAGAAGUUACACA [JR_SSTheophyB_Sub008]", "targetDesc": "MS2 coat protein", "apparent KD of MS2 coat protein, nM": 58.6}
{"residueString": "UCGCUCUGGGUGAAUCCCAGAGAUGUGGAAGGAGCGGACGAAAGUCCAGGUAGGUCGCCAUCGAACAUGAGGAUCACCCAUGUAC [Same State - Arginine A (Freestyle 26)]", "targetDesc": "MS2 coat protein", "apparent KD of MS2 coat protein, nM": 46.2}
{"residueString": "UAUGUCGCCGAAGAUACCAGCCUGGCAAGCAACAUGAGGAUCACCCAUGUAAUUACUUAUGGCCCUUGGCAGCUUCAAAUAGAGC [theeternabot_sameState_MS2_Theo_B_42]", "targetDesc": "MS2 coat protein", "apparent KD of MS2 coat protein, nM": 12.4}
{"residueString": "UAUAUAUAUAUUGAUACCAGCAGAGAAAACAUAUAUCCUAACAUGAGGAUCACCCAUGUAUGCCCUUGGCAGCGAUAUAUAUAUA [8.A]", "targetDesc": "MS2 coat protein", "apparent KD of MS2 coat protein, nM": 23.5}
{"residueString": "UGCGUACAUGAGGAUCACCCAUGUACUGAAGGAGCGGGAGGCAUCUCAGGUAGGUCGCAGACAUGAGGAUCACCCAUGUAGUGGU [Exclusion Arginine A GF 18]", "targetDesc": "MS2 coat protein", "apparent KD of MS2 coat protein, nM": 26.6}

* * *

# apparent KD of K4 kissing-loop reporter per entry
Test system: K4 kissing-loop RNA reporter;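 further: bound reporter read as fluorescence of individual clusters on recovered sequencing chips by microscopy, with normalized cluster intensities fitted with a binding model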
Experiment: apparent KD of K4 kissing-loop reporter; higher = weaker reporter binding
Details: Eterna round: R107; input ligand: theophylline 20 uM
parameterMeasured: apparent KD of K4 kissing-loop reporter (nM)

{"residueString": "AAUGUACAAGUGAUGUUUGUACUUUCCGAAGGAGCGUCAAAUAAGACAGGUAGGUCGCGGAUACUCUAAAUAAUCAGGUCAUUAA [JR_ExcArginiA_Sub019]", "testResult": 87.2}
{"residueString": "GAGUCCUUUGAAGGAUAUAGACGUCCCGAUCACUCAGUUGGCGAGCGAGUGAUGUUCGUUCCUAUACUAGAAGGUCAAAGCCUCC [theeternabot_sameState_KL_FMN_B_32]", "testResult": 204}
{"residueString": "UUUUAUAACCGAAGGAGCGCGUGGGCGCAGUGAUGUUGCGCCCGACAUCACUUCAACUUAACGCAGGUAGGUCGCGGUUUUAAUG [Arginine B (Excl) V3]", "testResult": 163}
{"residueString": "CCAAUCUUUUACGAUACCAGUCUAAUAUAUUUAAUCAAAACCCUCGCCGAGUGAUGUUCGGACCCUUGGCAGCGUUUGCGAGAGG [xssgstkmullin]", "testResult": 452}
{"residueString": "UGUUUUUACUGAAGGAGCGGCAAUUGAUACGUAGAUAUAGUGAUGUUAUAUAAGAUAGAGAGCCAGGUAGGUCGCAGAAUGUAUC [ExArgB.aC]", "testResult": 252}
{"residueString": "UUUCCAGAUAAGUGGGAACGCUCCAUAACAGAGGAUAUCAGAGCGCUGAGAAGGCUGUUUUACAGUGAUGUUGUAAGUGUGGAGC [#10 K4 FMN A Same State]", "testResult": 282}
{"residueString": "UGUCAUUGGUCUGAUACCAGCUUGAUCGGAAACGAUCUGCUGGAGUGAUGUUCCAAGUAAAGCCCUUGGCAGCAGACCGAUGACU [TheoBS 8 #SwitchBubble #StaticStem]", "testResult": 125}
{"residueString": "GCGGACAUUCGCAGUGAUGUUGCGACGGAAGGAGCGGAUGAAAAUCCAGGUAGGUCGCCGACAAAAUUAAUUUUAAUGUGUUCGC [#03 K4 Arginine A Same State]", "testResult": 316}
{"residueString": "AAUUUAUUAACUGAUACCAGACUUUAUUAUUUGUAAAUUACUAGUGAUGUUAGUGUUUCUGUCCCUUGGCAGCAGUAUUUAUUAA [JR_SSTheophyB_Sub024]", "testResult": 134}
{"residueString": "UGAUACCAGACGGCCGCCACUACACCAGUCAAAGACUGGAUGUGAAAUUCGACCAGUGAUGUUGGUAGGACCGGGUCUGGUAUCU [TrypBX 8 #SwitchBubble #StaticStem]", "testResult": 347}
{"residueString": "UGGUUUAACUGAAGGAGCGGCAAUUGAUAAGUAGAUAUAGUGAUGUUAUAUAAGAUAGAGAGCCAGGUAGGUCGCAGAGGUAUUU [ExArgB.P]", "testResult": 248}
{"residueString": "UGUACCGAGUCAGGAUAUCAUAAUAAAUCCAGUGAUGUUGGAAUAACCAGUACAAAGUACUGGCCUUGAGAAGGGACUUGGUACU [FmnBS 3 #SwitchBubble #StaticStem]", "testResult": 147}

* * *

System: MS2 coat protein
Experiment: apparent KD of MS2 coat protein; designed switch direction (-1 OFF switch, 1 ON switch): 1; higher = weaker reporter binding
Details: input ligand: none
# apparent KD of MS2 coat protein per entry

{"residueString": "ACUUGCCGCACAGGAUAUGGGUGCCUGUACAUGAGGAUCACCCAUGUUAAGGGACGGAUUACGAACCAGAAGGGUGAGGCGGGC [Tigeti] (Eterna round: R96, puzzle: Same State NG 2)", "apparent KD of MS2 coat protein": "750 nM"}
{"residueString": "AGAGGAGGAGCAGGAUAUUCGAAGAAGAACGUGGAAGAAGGGUUCAUGCGAUGACAUGAGGAUCACCCAUGUACCGCGCGAGGA [AK SSNG1-V2-11] (Eterna round: R96, puzzle: Same State NG 1)", "apparent KD of MS2 coat protein": "67.6 nM"}
{"residueString": "UUGAUUAACGUAGGAUAUCGACCUACAUGAGGAUCACCCAUGUCUUUGAAUAGAUUUUUUUGUUACGAGAAGGACGUUAUGUAU [JR_SSNG2_Sub066] (Eterna round: R96, puzzle: Same State NG 2)", "apparent KD of MS2 coat protein": "89.4 nM"}
{"residueString": "GUAGCAUACCGAGGAUAUUCAUAUAAUAUACAUGAGGAUCACCCAUGUUAUAGGCGAAAGCCUUGGGAGAAGGCGGAAUGCUAC [Xeonanis - 20 Mod62] (Eterna round: R96, puzzle: Same State NG 2)", "apparent KD of MS2 coat protein": "14.9 nM"}
{"residueString": "AGACUACAACCUCGAACAUGAGGAUCACCCAUGUAAAGAUCCAAGGAUAUGGACAGGCCGAGCUACCAGAAGGUGGAAAGAGCC [Eternabot solution 7] (Eterna round: R96, puzzle: Same State NG 3)", "apparent KD of MS2 coat protein": "69.8 nM"}
